# Measured Target: human GPR120 (Homo sapiens (Human))
# Measurement Protocol: GPR120 pERK AlphaScreen SureFire Assay (human GPR120 pERK assay)
# Conditions Used: CHO cells stably transfected with short form of human GPR120
Field: label. Allowed values: Condition met (EC50 < 300 nM) or Condition not met (EC50 >= 300 nM).

Study these solved cases before continuing.
CC(C)Oc1cc(F)cc(-c2ccc(OC[C@@H]3C[C@H]3C(=O)O)cc2)c1 (racemic) [Example 55]    Condition not met
O=C(O)[C@H]1C[C@@H]1COc1ccc(-c2cc(Oc3cccc(F)c3)cc(F)c2F)cc1F (single isomer, unassigned) [Example 105]    Condition met
O=C(O)C1CC1COc1ccc(-c2cc(OC3CCCC3)ccc2F)cc1 (racemic) [Example 50]    Condition met
O=C(O)[C@@H]1C[C@H]1COc1ccc(-c2cc(Oc3ccc(F)c(F)c3)ccc2F)cc1 (racemic) [Example 91]    Condition not met

# input for lookup
Request: In the record for COc1ncc(Cl)cc1-c1ccc(CC[C@@H]2C[C@H]2C(=O)O)cc1 (racemic) [Example 78] , is EC50 less than 300 nM?
Result: Condition not met

* * *

# Measured Target: human GPR120 (Homo sapiens (Human), UniProt Q5NUL3)
# Sequence (Q5NUL3 whole entry): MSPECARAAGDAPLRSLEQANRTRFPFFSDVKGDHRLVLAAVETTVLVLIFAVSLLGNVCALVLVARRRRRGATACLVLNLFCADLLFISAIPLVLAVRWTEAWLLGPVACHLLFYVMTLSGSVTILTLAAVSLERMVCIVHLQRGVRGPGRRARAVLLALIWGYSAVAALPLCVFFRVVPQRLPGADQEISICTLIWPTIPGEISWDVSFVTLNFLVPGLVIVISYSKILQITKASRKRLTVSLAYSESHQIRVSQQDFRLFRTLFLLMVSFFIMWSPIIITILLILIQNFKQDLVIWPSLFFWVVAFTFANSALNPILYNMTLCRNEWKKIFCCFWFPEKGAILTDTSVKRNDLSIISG
# Measurement Protocol: GPR120 pERK AlphaScreen SureFire Assay (human GPR120 pERK assay)
# Conditions Used: CHO cells stably transfected with short form of human GPR120
Let's look at some molecules and their measured pEC50.
// pEC50 here means minus log10 of the molar concentration (mol/L)

Below: 2 molecules and their reported pEC50.
CC(C)Oc1cccc(-c2ccc(CC[C@@H]3C[C@H]3C(=O)O)cc2)c1 (racemic)    6.04
CC(C)Oc1ccc(F)c(-c2ccc(OC[C@H]3C[C@@H]3C(=O)O)c(F)c2)c1 (single isomer, unassigned)    6.54

O=C(O)[C@@H]1C[C@H]1COc1ccc(-c2cc(C(F)(F)F)ccc2F)cc1 (racemic) on human GPR120 (Homo sapiens (Human), UniProt Q5NUL3) gives pEC50 = 6.17

The measured pEC50 that O=C(O)[C@@H]1C[C@H]1COc1ccc(-c2cc(C(F)(F)F)cnc2Cl)cc1 (racemic) showed for human GPR120 (Homo sapiens (Human), UniProt Q5NUL3) is 5.87

* * *

Collected EC50 values appear next to each entry.
# Measured Target: human GPR120 (Homo sapiens (Human))
# Measurement Protocol: GPR120 pERK AlphaScreen SureFire Assay (human GPR120 pERK assay)
# Conditions Used: CHO cells stably transfected with short form of human GPR120

Known results for compounds:
Cc1ccc(Oc2ccc(F)c(-c3ccc(OCC4CC4C(=O)O)c(F)c3)c2)cc1F (single isomer, unassigned) [Example 101]    130 nM
O=C(O)C1CC1COc1ccc(-c2cc(OC(F)(F)F)ccc2F)cc1 (racemic) [Example 51]    470 nM
CC(C)Oc1ccc(F)c(-c2ccc(OC[C@@H]3C[C@@H]3C(=O)O)cc2)c1 (single isomer, unassigned) [Example 8]    2860 nM

Per the records, this compound ( O=C(O)[C@@H]1C[C@H]1COc1ccc(-c2cc(Oc3cccc(F)c3)ccc2F)cc1F (relative stereo) [Example 96] ) has EC50 equal to 180 nM

* * *

# Measured Target: human GPR120 (Homo sapiens (Human), UniProt Q5NUL3)
# Measurement Protocol: GPR120 pERK AlphaScreen SureFire Assay (human GPR120 pERK assay)
# Conditions Used: CHO cells stably transfected with short form of human GPR120
Could you mark each record yes if its EC50 falls strictly under 1000 nM, and no if it equals or exceeds it?

Cc1ccc(Oc2ccc(F)c(-c3ccc(OC[C@@H]4C[C@H]4C(=O)O)c(F)c3)c2)cn1 (racemic)    yes

Request: Strictly below 1000 nM in EC50? CC(C)Oc1ccc(Cl)c(-c2ccc(OC[C@@H]3C[C@H]3C(=O)O)c(F)c2)c1 (racemic)
Result: yes

Request: Hello, I'm reviewing records and need to know if EC50 of O=C(O)[C@@H]1C[C@H]1COc1ccc(-c2cc(Oc3cccc(F)c3)ccc2F)cc1 (racemic) is below 1000 nM. Could you check?
Result: yes

Request: Identify whether the compound CC(C)Oc1cc(F)cc(-c2ccc(OC[C@@H]3C[C@H]3C(=O)O)cc2F)c1 (racemic) records EC50 below 1000 nM.
Result: yes

Request: Record Cc1nn(Cc2ccc(Cl)cc2)cc1-c1ccc(OC[C@@H]2C[C@H]2C(=O)O)cc1 (racemic) : is its EC50 strictly below 1000 nM?
Result: no

Request: Decide: EC50 of CC(C)Oc1cc(Cl)cc(-c2ccc(CC[C@@H]3C[C@H]3C(=O)O)cc2)c1 (relative stereo) strictly below 1000 nM?
Result: no

Request: Please let me know if O=C(O)C1CC1COc1ccc(-c2cc(Oc3cccc(F)c3)cc(F)c2F)cc1F (racemic) shows EC50 below 1000 nM.
Result: yes

Request: Hi there! Is EC50 for O=C(c1ccccc1)c1cccc(-c2ccc(OC[C@@H]3C[C@H]3C(=O)O)cc2)c1 (racemic) below 1000 nM, do you know?
Result: yes

* * *

# Measured Target: human GPR120 (Homo sapiens (Human))
# Measurement Protocol: GPR120 pERK AlphaScreen SureFire Assay (human GPR120 pERK assay)
# Conditions Used: CHO cells stably transfected with short form of human GPR120
# Protocol: GPR120 activity was monitored by measuring phosphorylation of ERK (pERK), since G protein receptors are known to activate the ERK signaling cascade either directly and/or through recruitment of arrestin that serves as a scaffold for downstream signaling events. […] The media was then dumped and cells lysed with 20 μL of 1× Lysis buffer from the AlphaScreen SureFire Phospho-ERK 1/2 Kit (Perkin Elmer Cat. #6760617M). […] After correcting for background, EC50 values were determined. […]
Parameter: pEC50
Value format note: pEC50 is -log10 of concentration (mol/L); just state the number.

Solved entries:
CC(C)Oc1ccc(F)c(-c2ccc(C[C@H]3C[C@H]3CC(=O)O)cc2)c1 (racemic)    6.37
Cc1ccc(Oc2ccc(F)c(-c3ccc(OCC4CC4C(=O)O)c(F)c3)c2)cc1F (single isomer, unassigned) [Example 102]    6.57
COCCc1cc(-c2cc(OC(C)C)ccc2F)ccc1OC[C@@H]1C[C@H]1C(=O)O (racemic)    5.49
COc1cc(-c2cc(Oc3cccc(F)c3)ccc2F)ccc1OC[C@@H]1C[C@H]1C(=O)O (relative stereo)    5.94
CC(C)Oc1ccc(F)c(-c2ccc(OC[C@@H]3C[C@H]3C(=O)O)c(C=O)c2)c1 (racemic)    5.75

Lab note: measured pEC50 of CC(C)Oc1ccc(F)c(-c2ccc(OC[C@@H]3C[C@H]3C(=O)O)cc2)c1 (racemic) [Example 1] was 6.43

Notebook: Cc1ccc(Oc2cc(F)c(F)c(-c3ccc(OCC4CC4C(=O)O)c(F)c3)c2)cc1F (single isomer, unassigned) [Example 108] , pEC50 read as 6.44

Briefly, pEC50 measured for CC(C)Oc1ccc(F)c(-c2ccc(OC[C@@H]3C[C@H]3C(=O)O)c(C(F)(F)F)c2)c1 (racemic) : 6.74

Short answer for CC(C)Oc1cc(-c2ccc(OC[C@@H]3C[C@H]3C(=O)O)cc2)c(F)c(C(F)(F)F)c1 (racemic) : pEC50 was 5.78

Form: compound = CC(C)Oc1cc(F)c(F)c(-c2ccc(OC[C@H]3C[C@@H]3C(=O)O)c(F)c2)c1 ; pEC50 = 6.64

So for Cc1ccc(Oc2ccc(F)c(-c3ccc(OCC4C[C@@H]4C(=O)O)cc3)c2)cn1 (stereo partly shown) , the logged pEC50 turned out to be 7.05

Sure, the documented pEC50 for O=C(O)[C@@H]1C[C@H]1COc1ccc(-c2cc(Cl)cc(C(F)(F)F)c2)cc1 (racemic) is 5.61

Record CC(C)Oc1ccc(F)c(-c2ccc(C[C@H]3C[C@@H]3CC(=O)O)cc2)c1 (single isomer, unassigned) [Example 36] . Reported pEC50: 7.22

pEC50 for CC(C)Oc1ccc(F)c(-c2ccc(CC[C@H]3C[C@H]3C(=O)O)cc2)c1 (single isomer, unassigned) [Example 16] is 6.38

Sure, the documented pEC50 for Cc1cc(-c2ccc(OC[C@@H]3C[C@H]3C(=O)O)cc2)n(-c2ccc(Cl)cc2)n1 (racemic) is 5.30

* * *

pEC50 reference
# Measured Target: human GPR120 (Homo sapiens (Human), UniProt Q5NUL3)
# Measurement Protocol: GPR120 pERK AlphaScreen SureFire Assay (human GPR120 pERK assay)
# Conditions Used: CHO cells stably transfected with short form of human GPR120
Scale note: pEC50 = -log10(concentration in M).

Use the examples below as a reference point.
O=C(O)[C@@H]1C[C@H]1CCc1ccc(-c2cccc(-n3cccc3)c2)cc1 (racemic) [Example 129]    5.80
CC[C@@H](C)Oc1ccc(F)c(-c2ccc(OCC3CC3C(=O)O)cc2)c1 (stereo partly shown) [Example 93]    6.52
CC(C)Oc1ccc(F)c(-c2ccc(CC[C@H]3C[C@H]3C(=O)O)cc2)c1 (racemic) [Example 15]    5.77
O=C(O)[C@@H]1C[C@H]1CCc1ccc(-c2cc(Oc3ccccc3)ccc2F)cc1 (racemic) [Example 76]    6.33
O=C(O)[C@@H]1CC1COc1ccc(-c2cc(Oc3cccc(F)c3)cnc2Cl)cc1 (stereo partly shown) [Example 112]    6.68

Entry O=C(O)[C@@H]1C[C@H]1COc1ccc(-c2cc(Oc3ccccc3)ccc2F)cc1F (single isomer, unassigned) [Example 10] under human GPR120 (Homo sapiens (Human), UniProt Q5NUL3) had pEC50 of 7.10

So the reported pEC50 for COc1cc(OC(F)(F)F)cc(-c2ccc(OC[C@@H]3C[C@H]3C(=O)O)cc2)c1 (racemic) [Example 74] , on human GPR120 (Homo sapiens (Human), UniProt Q5NUL3), turned out to be 6.21
